Sourced from paper PMC7468908

target desc: CYP2C19 (Homo sapiens, UniProt P33261)
Construct: purchased Sigma-Aldrich
Sequence (P33261 whole entry): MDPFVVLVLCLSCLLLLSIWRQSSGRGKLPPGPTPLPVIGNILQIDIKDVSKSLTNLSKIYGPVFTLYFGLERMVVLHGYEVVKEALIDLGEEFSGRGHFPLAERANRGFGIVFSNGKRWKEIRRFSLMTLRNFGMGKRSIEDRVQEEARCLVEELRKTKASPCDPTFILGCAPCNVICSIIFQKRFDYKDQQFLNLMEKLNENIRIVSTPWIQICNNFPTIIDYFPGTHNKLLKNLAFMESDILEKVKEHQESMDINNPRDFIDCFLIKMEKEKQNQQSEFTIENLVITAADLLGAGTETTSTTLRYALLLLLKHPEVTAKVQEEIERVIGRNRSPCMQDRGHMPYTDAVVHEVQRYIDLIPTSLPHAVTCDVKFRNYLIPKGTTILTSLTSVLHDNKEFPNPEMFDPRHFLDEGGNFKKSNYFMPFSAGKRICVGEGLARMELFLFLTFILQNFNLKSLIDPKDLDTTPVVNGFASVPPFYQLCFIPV
test protocol: CYP2C19-catalyzed S-mephenytoin hydroxylation (CypExpress kit, HPLC)
Type: biochemical
measurement kind: IC50

So, COc1cc(-c2oc3cc(O)cc(O)c3c(=O)c2O)ccc1O ? Its IC50 was > 30 µM

---

target desc: CYP2C19 (Homo sapiens)
Construct: purchased Sigma-Aldrich
test protocol: CYP2C19-catalyzed S-mephenytoin hydroxylation (CypExpress kit, HPLC)
Assay type: biochemical
experimental context: S-mephenytoin hydroxylation, substrate 5 µM; read-out: IC50 for CYP2C19
pIC50: −log10 of the molar value.
Entries and their pIC50

These solved cases illustrate the format of a correct answer.
{"columns": ["compound", "pIC50"],
 "data": [
  ["O=c1c(O)c(-c2ccc(O)c(OS(=O)(=O)O)c2)oc2cc(O)cc(O)c12 [Q3′S, quercetin-3′-sulfate]", "< 4.52"],
  ["COc1cc(-c2oc3cc(O)cc(O)c3c(=O)c2OC2OC(C(=O)O)C(O)C(O)C2O)ccc1O (stereo not drawn) [I3G, isorhamnetin-3-glucuronide]", "< 4.52"]
]}

Please look at the following compound next.
So, O=C(O)C1OC(Oc2c(-c3ccc(O)c(O)c3)oc3cc(O)cc(O)c3c2=O)C(O)C(O)C1O (stereo not drawn) [Q3G, quercetin-3-glucuronide] ? Its pIC50 was < 4.52

---

target desc: OATP2B1 (Homo sapiens, UniProt O94956)
Construct: host or cells: A431
Sequence (O94956 whole entry): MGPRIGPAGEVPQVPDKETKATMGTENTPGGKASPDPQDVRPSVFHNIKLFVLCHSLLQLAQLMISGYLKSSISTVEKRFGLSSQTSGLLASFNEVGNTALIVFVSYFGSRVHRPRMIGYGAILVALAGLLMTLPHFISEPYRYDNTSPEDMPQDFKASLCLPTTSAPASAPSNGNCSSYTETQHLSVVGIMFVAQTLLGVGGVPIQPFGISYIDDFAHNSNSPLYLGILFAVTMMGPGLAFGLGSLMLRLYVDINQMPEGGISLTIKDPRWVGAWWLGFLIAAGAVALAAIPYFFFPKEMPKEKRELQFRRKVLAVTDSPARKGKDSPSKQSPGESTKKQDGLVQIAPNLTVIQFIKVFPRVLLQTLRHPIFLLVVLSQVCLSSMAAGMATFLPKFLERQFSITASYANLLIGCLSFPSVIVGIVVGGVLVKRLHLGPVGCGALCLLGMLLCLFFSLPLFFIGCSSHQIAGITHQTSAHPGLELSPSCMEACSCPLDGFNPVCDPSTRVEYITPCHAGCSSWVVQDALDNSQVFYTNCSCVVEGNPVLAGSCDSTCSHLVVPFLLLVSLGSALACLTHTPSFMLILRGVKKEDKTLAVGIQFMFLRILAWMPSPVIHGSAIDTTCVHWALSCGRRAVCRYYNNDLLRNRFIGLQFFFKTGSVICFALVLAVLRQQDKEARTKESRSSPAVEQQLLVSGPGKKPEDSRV
test protocol: OATP2B1-mediated pyranine uptake in A431 cells overexpressing OATP2B1
Assay type: cell-based
experimental context: 20 μM pyranine, 15 min, A431-OATP2B1 cells; read-out: IC50 for OATP2B1
Procedure: A431 cells overexpressing human OATPs, 1A2 (BC042452, HsCD00333163), 1B1 (Gene ID: AB026257), 1B3 (BC141525, HsCD00348132) or 2B1 (BC041095.1, HsCD00378878), or their mock transfected controls, were generated as previously described. Cells were cultured in Dulbecco’s Modified Eagle Medium (DMEM; Thermo Fischer Scientific, Waltham, MA, USA) supplemented with 10% fetal bovine serum, 2 mM L-glutamine, 100 units/mL penicillin and 100 µg/mL streptomycin, at 37 °C with 5% CO2. […]
Entries and their IC50
The reply should contain only the number, in µM.

These solved cases illustrate the format of a correct answer.
{"columns": ["molecule", "readout unit", "assay value"],
 "data": [
  ["COc1cc(-c2oc3cc(O)cc(O)c3c(=O)c2OC2OC(C(=O)O)C(O)C(O)C2O)ccc1O (stereo not shown) [I3G, isorhamnetin-3-glucuronide]", "µM", 4.14],
  ["O=c1c(O)c(-c2ccc(O)c(O)c2)oc2cc(O)cc(O)c12 [Q, quercetin]", "µM", 0.34],
  ["O=C(O)C1OC(Oc2c(-c3ccc(O)c(O)c3)oc3cc(O)cc(O)c3c2=O)C(O)C(O)C1O (stereo not shown) [Q3G, quercetin-3-glucuronide]", "µM", 4.85]
]}

Please look at the following molecule next.
So, O=c1c(O)c(-c2ccc(O)c(OS(=O)(=O)O)c2)oc2cc(O)cc(O)c12 [Q3′S, quercetin-3′-sulfate] ? Its IC50 was 0.43

---

target desc: OATP1B3 (Homo sapiens)
Construct: host or cells: A431
Sequence (Q9NPD5 1-702): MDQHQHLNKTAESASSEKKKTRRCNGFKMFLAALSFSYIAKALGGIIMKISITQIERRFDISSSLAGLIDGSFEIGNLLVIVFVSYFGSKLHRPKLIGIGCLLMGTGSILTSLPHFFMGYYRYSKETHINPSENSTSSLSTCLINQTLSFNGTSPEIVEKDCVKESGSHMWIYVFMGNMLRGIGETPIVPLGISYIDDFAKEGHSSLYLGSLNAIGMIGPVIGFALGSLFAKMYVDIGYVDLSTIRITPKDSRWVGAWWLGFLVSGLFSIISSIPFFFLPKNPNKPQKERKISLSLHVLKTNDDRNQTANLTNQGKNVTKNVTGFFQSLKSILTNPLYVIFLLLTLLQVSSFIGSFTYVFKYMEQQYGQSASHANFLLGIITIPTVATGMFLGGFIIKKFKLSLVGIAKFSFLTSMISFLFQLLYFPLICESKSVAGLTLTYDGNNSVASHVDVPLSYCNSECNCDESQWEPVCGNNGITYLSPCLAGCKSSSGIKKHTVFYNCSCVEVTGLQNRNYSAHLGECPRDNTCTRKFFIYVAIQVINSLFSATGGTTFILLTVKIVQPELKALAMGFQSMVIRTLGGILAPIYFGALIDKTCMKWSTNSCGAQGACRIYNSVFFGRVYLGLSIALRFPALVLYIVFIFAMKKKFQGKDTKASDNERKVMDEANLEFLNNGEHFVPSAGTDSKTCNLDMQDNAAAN
test protocol: OATP1B3-mediated pyranine uptake in A431 cells overexpressing OATP1B3
Assay type: cell-based
experimental context: 20 μM pyranine, 30 min, A431-OATP1B3 cells; read-out: IC50 for OATP1B3
measurement kind: pIC50
Kindly note that pIC50 refers to -log10 of the concentration in mol/L and answer with the value alone.

{"columns": ["molecule", "pIC50"],
 "data": [
  ["COc1cc(-c2oc3cc(O)cc(O)c3c(=O)c2OC2OC(C(=O)O)C(O)C(O)C2O)ccc1O (stereo not shown) [I3G, isorhamnetin-3-glucuronide]", 5.02]
]}

Record for O=c1c(O)c(-c2ccc(O)c(OS(=O)(=O)O)c2)oc2cc(O)cc(O)c12 [Q3′S, quercetin-3′-sulfate] under target or system OATP1B3 (Homo sapiens): pIC50 reported as 5.60

Record for O=c1c(O)c(-c2ccc(O)c(O)c2)oc2cc(O)cc(O)c12 under target or system OATP1B3 (Homo sapiens): pIC50 reported as 5.49

Record for O=C(O)C1OC(Oc2c(-c3ccc(O)c(O)c3)oc3cc(O)cc(O)c3c2=O)C(O)C(O)C1O (stereo not shown) [Q3G, quercetin-3-glucuronide] under target or system OATP1B3 (Homo sapiens): pIC50 reported as 5.24

---

Entries and their concentration causing statistically significant (p < 0.01) inhibition, OATP1A2
target desc: OATP1A2 (Homo sapiens, UniProt P46721)
Construct: host or cells: A431
Sequence (P46721 whole entry): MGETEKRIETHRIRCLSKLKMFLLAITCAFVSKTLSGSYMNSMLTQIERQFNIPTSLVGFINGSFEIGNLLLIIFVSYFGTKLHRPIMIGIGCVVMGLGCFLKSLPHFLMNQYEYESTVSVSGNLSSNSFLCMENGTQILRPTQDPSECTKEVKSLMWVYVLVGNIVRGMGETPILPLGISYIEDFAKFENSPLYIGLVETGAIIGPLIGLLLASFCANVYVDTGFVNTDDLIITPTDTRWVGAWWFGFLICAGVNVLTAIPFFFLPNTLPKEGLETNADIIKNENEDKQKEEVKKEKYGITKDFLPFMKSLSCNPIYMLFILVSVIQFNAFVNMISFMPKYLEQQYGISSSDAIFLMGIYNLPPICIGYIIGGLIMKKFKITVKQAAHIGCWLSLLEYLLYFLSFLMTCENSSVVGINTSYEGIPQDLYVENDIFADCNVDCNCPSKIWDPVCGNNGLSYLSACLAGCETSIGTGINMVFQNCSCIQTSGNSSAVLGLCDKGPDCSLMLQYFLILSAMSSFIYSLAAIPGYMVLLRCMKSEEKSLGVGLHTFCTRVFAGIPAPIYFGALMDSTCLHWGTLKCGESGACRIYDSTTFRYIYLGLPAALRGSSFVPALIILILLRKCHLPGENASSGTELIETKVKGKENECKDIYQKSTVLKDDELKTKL
test protocol: OATP1A2-mediated sulforhodamine 101 uptake in A431 cells overexpressing OATP1A2
Format: cell-based
experimental context: 0.5 μM sulforhodamine 101, 10 min
Description: A431 cells overexpressing human OATPs, 1A2 (BC042452, HsCD00333163), 1B1 (Gene ID: AB026257), 1B3 (BC141525, HsCD00348132) or 2B1 (BC041095.1, HsCD00378878), or their mock transfected controls, were generated as previously described. Cells were cultured in Dulbecco’s Modified Eagle Medium (DMEM; Thermo Fischer Scientific, Waltham, MA, USA) supplemented with 10% fetal bovine serum, 2 mM L-glutamine, 100 units/mL penicillin and 100 µg/mL streptomycin, at 37 °C with 5% CO2. […]
The reply should contain only the number, in µM.

These solved cases illustrate the format of a correct answer.
{"columns": ["compound", "readout unit", "assay value"],
 "data": [
  ["O=C(O)C1OC(Oc2c(-c3ccc(O)c(O)c3)oc3cc(O)cc(O)c3c2=O)C(O)C(O)C1O (centres unmarked) [Q3G, quercetin-3-glucuronide]", "µM", 25],
  ["COc1cc(-c2oc3cc(O)cc(O)c3c(=O)c2O)ccc1O [IR, isorhamnetin]", "µM", 3.1],
  ["COc1cc(-c2oc3cc(O)cc(O)c3c(=O)c2OC2OC(C(=O)O)C(O)C(O)C2O)ccc1O (centres unmarked) [I3G, isorhamnetin-3-glucuronide]", "µM", 12.5],
  ["O=c1c(O)c(-c2ccc(O)c(OS(=O)(=O)O)c2)oc2cc(O)cc(O)c12 [Q3′S, quercetin-3′-sulfate]", "µM", 0.8]
]}

Please look at the following compound next.
So, O=c1c(O)c(-c2ccc(O)c(O)c2)oc2cc(O)cc(O)c12 [Q, quercetin] ? Its concentration causing statistically significant (p < 0.01) inhibition, OATP1A2 was 3.1

---

Entries and their IC50
target desc: BCRP (Homo sapiens)
Sequence (Q9UNQ0 whole entry): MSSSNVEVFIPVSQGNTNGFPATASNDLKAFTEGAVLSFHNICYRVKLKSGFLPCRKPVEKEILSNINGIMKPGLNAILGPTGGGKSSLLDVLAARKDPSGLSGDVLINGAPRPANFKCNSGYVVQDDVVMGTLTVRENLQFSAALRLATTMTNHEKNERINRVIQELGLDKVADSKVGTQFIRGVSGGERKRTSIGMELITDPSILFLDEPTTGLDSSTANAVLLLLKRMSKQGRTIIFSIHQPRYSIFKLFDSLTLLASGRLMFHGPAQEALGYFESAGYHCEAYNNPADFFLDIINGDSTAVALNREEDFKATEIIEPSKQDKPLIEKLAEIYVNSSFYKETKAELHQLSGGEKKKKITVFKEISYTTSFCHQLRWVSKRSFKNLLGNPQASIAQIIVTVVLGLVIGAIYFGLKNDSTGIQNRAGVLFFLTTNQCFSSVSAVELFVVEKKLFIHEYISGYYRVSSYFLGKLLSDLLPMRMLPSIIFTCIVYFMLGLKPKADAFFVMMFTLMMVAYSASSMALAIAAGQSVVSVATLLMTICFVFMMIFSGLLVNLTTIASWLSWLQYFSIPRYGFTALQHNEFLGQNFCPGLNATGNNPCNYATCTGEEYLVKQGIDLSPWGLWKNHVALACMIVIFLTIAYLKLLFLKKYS
test protocol: BCRP vesicular transport of lucifer yellow in Sf9 membrane vesicles
experimental context: vesicular uptake of 10 μM lucifer yellow

These solved cases illustrate the format of a correct answer.
{"columns": ["compound", "IC50"],
 "data": [
  ["COc1cc(-c2oc3cc(O)cc(O)c3c(=O)c2OC2OC(C(=O)O)C(O)C(O)C2O)ccc1O (stereo not shown) [I3G, isorhamnetin-3-glucuronide]", "> 30 µM"],
  ["O=c1c(O)c(-c2ccc(O)c(OS(=O)(=O)O)c2)oc2cc(O)cc(O)c12 [Q3′S, quercetin-3′-sulfate]", "3.2 µM"],
  ["O=c1c(O)c(-c2ccc(O)c(O)c2)oc2cc(O)cc(O)c12", "0.13 µM"]
]}

So, O=C(O)C1OC(Oc2c(-c3ccc(O)c(O)c3)oc3cc(O)cc(O)c3c2=O)C(O)C(O)C1O (stereo not shown) [Q3G, quercetin-3-glucuronide] ? Its IC50 was 13.5 µM
